These measurements were taken from patent US5137890A.

System: Ethanol-Induced Lesions
ASSAY PROTOCOL: Cytoprotection: inhibition of ethanol-induced lesions
Assay type: in vivo, male, Charles River rats
CONDITION PARAMETERS: Rattus norvegicus; @ 10 mg/kg, oral, 1 hour before 50% ethanol
Counter-ions that a name gives are not always drawn.
MEASURE NAME: inhibition in vivo at 10 mg/kg (%)
Answers are plain numbers, in %.

Could you tell me inhibition in vivo at 10 mg/kg for each of these molecules? They are listed below.
1. CCN1CCc2nc(Nc3ccc(C(F)(F)F)cc3)nc(-c3ccc(Cl)cc3)c2C1 [Example 5, dihydrochloride monohydrate]
2. CN1CCc2nc(N)nc(-c3ccc(Cl)cc3)c2C1 [Example 22, Hydrate]

[20, 100]

====

System: Ethanol-Induced Lesions
ASSAY PROTOCOL: Cytoprotection: inhibition of ethanol-induced lesions
Format: in vivo, male, Charles River rats
CONDITION PARAMETERS: Rattus norvegicus; @ 10 mg/kg, oral, 1 hour before 50% ethanol
Where a name gives a salt, the structure may show the parent alone.
MEASURE NAME: inhibition in vivo at 10 mg/kg (%)
Answers are plain numbers, in %.

For orientation, consider the following solved cases.
- MOLECULE: "Nc1nc2c(c(-c3ccc(F)cc3)n1)CNCC2 [Example 16, dihydrochloride hemihydrate]"
  UNIT LABEL: "%"
  MEASURED NUMBER: 80
- MOLECULE: "CC(=O)N1CCc2nc(C)nc(-c3ccc(C)cc3)c2C1 [Example 24, Monohydrate]"
  UNIT LABEL: "%"
  MEASURED NUMBER: 40
- MOLECULE: "Nc1nc2c(c(-c3ccc(Cl)cc3)n1)CNCC2 [Example 15, Dihydrochloride]"
  UNIT LABEL: "%"
  MEASURED NUMBER: 40

Okay, now this molecule:
Record request: inhibition in vivo at 10 mg/kg value, item CCN(CC)CCN1CCc2nc(N)nc(-c3ccc(F)cc3)c2C1 [Example 26, Trihydrochloride]
80

====

Test system: Ethanol-Induced Lesions
ASSAY PROTOCOL: Cytoprotection: inhibition of ethanol-induced lesions
Type: in vivo, male, Charles River rats
CONDITION PARAMETERS: Rattus norvegicus; @ 10 mg/kg, oral, 1 hour before 50% ethanol
From the text: Using the procedures of Robert, A. et al., Gastroenterology 77, 433(1979), male, Charles River rats weighing between 140 and 220 g were fasted overnight, but allowed water ad libitum. The rats were, however, deprived of water during the experiment. The rats were weighed and pretreated orally with the example compounds at the doses shown below in Table 1. […] The incidence of lesions in the mucosa and the submucosa was statistically analyzed by the method of Chisquares using Yates correction.
Where a name gives a salt, the structure may show the parent alone.
MEASURE NAME: inhibition in vivo at 10 mg/kg (%)
Answers are plain numbers, in %.

- COMPOUND: "CCCN(CCC)c1nc2c(c(-c3ccc(C)cc3)n1)CN(C(C)=O)CC2 [Example 25, Monohydrate]"
  inhibition in vivo at 10 mg/kg [%]: 40
- COMPOUND: "CC(=O)N1CCc2nc(N)nc(-c3ccc(F)cc3)c2C1 [Example 14, Monohydrate]"
  inhibition in vivo at 10 mg/kg [%]: 80

Dear colleague, could you please provide inhibition in vivo at 10 mg/kg for the compounds listed below?
1. CCNc1nc2c(c(-c3ccc(Cl)cc3)n1)CN(Cc1ccccc1)CC2
2. C=CCN1CCc2nc(NCC)nc(-c3ccc(Cl)cc3)c2C1
3. CC(=O)N1CCc2nc(C)nc(-c3ccc(F)cc3)c2C1 [Example 2, Monohydrochloride Monohydrate]

1. 20
2. 80
3. 100

Reported inhibition in vivo at 10 mg/kg, compound `CC(=O)N1CCc2nc(C)nc(-c3ccc(Cl)cc3)c2C1` : ____
20
